assay: HepG2 hepatoma cell cytotoxicity, dose response, cytotoxicity control, CellTiter-Glo luminescence, cherry-pick, set 3 (AID 720589); settings: HepG2 viability, ATP luminescence (CellTiter-Glo), 72 h; at 2.85 µM; hits give low values; 0% = untreated, negative = ATP loss
Cut-off -30% on max activity: below means criterion met, at or above means criterion not met.

Previously resolved entries follow.
compound: Cc1cc(C(=O)Nc2ccc3c(c2)C(=O)N(C)[C@@H]2CC[C@H](CC(=O)N[C@H](C)c4ccccc4)O[C@H]2CO3)no1
class name: criterion not met
//
compound: CC(Oc1cccc(Cl)c1)C(=O)NCCCCc1ccccc1 (stereo not given)
class name: criterion not met
//
compound: CC(C)Oc1ccc(Br)cc1C(=O)N/N=C/c1c[nH]c2ccccc12
class name: criterion not met
//
compound: C(=N\Nc1ccc2ccccc2n1)/c1ccc2c(c1)OCO2
class name: criterion met

Is max activity of COc1ccc(Nc2oc(COc3ccccc3OC)nc2C#N)cc1 strictly below -30%?
criterion met

---

assay: HepG2 hepatoma cell cytotoxicity, dose response, cytotoxicity control, CellTiter-Glo luminescence, cherry-pick, set 3 (AID 720589); conditions: HepG2 viability, ATP luminescence (CellTiter-Glo), 72 h; at 26 µM; hits give low values; 0% = untreated, negative = ATP loss
Reported max activity is given for each of the following compounds.
Write the value in % as a bare number.

Can you share its max activity? I mean this compound: Cc1nc2ncccn2c1-c1csc(Nc2ccc(O)cc2)n1
-23.1

Then what about the compound CCCN(C)C[C@H]1Oc2ncc(-c3ccccc3)cc2C(=O)N([C@@H](C)CO)C[C@H]1C ?
18.2

Lookup O=C(O)c1ccc2cc(-c3ccccc3)[nH]c2c1
-25

// next record CN(CCO)c1ccc(/C=N/Nc2nncc3ccccc23)cc1
-29.7

Okay, and CC1=NC(=O)C(N=Nc2cccc(C(=O)O)c2)N1c1ccccc1 (stereo unspecified) ?
-23.4

---

assay: HepG2 hepatoma cell cytotoxicity, dose response, cytotoxicity control, CellTiter-Glo luminescence, cherry-pick, set 3 (AID 720589); conditions: HepG2 viability, ATP luminescence (CellTiter-Glo), 72 h; at 26 µM; hits give low values; 0% = untreated, negative = ATP loss
Catalogue of max activity readings, one per entry.
Reply with just the number (in %).

molecule: CO[C@H]1CN(C)C(=O)c2cc(NC(=O)c3ccc(Oc4ccccc4)cc3)ccc2OC[C@H](C)NC[C@@H]1C
max activity (%): -95.1

// query max activity value for entry COc1ccc(C=C2CCc3ccccc3C2=O)cc1
-23.4

Request: COc1ccc(C(=O)CN2C(=O)c3ccccc3S2(=O)=O)cc1
10.2

Subsequent entry: COc1ccc(S(=O)(=O)N=Nc2c(O)[nH]c3ccccc23)cc1
-27.4

Also need CC(C)(C)C(=O)Cn1ncc(Cl)c(Cl)c1=O , thanks.
-23.7

What about COc1cccc(CN2CCC2(C)C(=O)Nc2cccc3cccnc23)c1F (stereo unspecified) ?
-24

---

assay: HepG2 hepatoma cell cytotoxicity, dose response, cytotoxicity control, CellTiter-Glo luminescence, cherry-pick, set 3 (AID 720589); details: HepG2 viability, ATP luminescence (CellTiter-Glo), 72 h; at 2.85 µM; hits give low values; 0% = untreated, negative = ATP loss
Reported max activity by item:
Write the number in % without appending the unit.

Known results for compounds:
compound: COC(=O)C[C@@H]1CC[C@@H]2[C@@H](COc3ccc(NC(=O)Cc4cccs4)cc3C(=O)N2C)O1
max activity (%): -25
--
compound: O=C(C[C@@H]1CC[C@@H]2[C@H](COC[C@@H](O)CN2S(=O)(=O)c2ccc(F)cc2)O1)NCc1ccc(Cl)c(Cl)c1
max activity (%): -11.2

// max activity lookup, key: Cc1cc(C)cc(C(=O)NC(=S)Nc2ccc(Cc3ccncc3)cc2)c1
-39.1

Another compound to look at: COc1ccc(OC)c(-c2nnc3n2N=C(c2ccc(OC)c(OC4CCOC4)c2)CS3)c1 (centres undefined)
-28.2

Again, but for CN(C)c1ccc(N=Nc2ccccc2Br)cc1
-41.2

Consider next the compound N#C[C@@H]1[C@H](c2ccc(C#Cc3ccccc3F)cc2)[C@@H](CO)N1C(=O)c1cccnc1 in the same way.
-22

# iterate: C/C=C/c1ccc(C2[C@@H]3CN(C(=O)Cc4ccccc4)C[C@H]2N3)cc1 (some centres undefined)
-29.1

Also O=C(C[C@@H]1C[C@H]2c3cc(NC(=O)CC4CC4)ccc3O[C@H]2[C@H](CO)O1)NCc1ccccc1F ?
-31.6

// same read-out, input: C(=Cc1c[nH]c2ccccc12)c1ccc2ccccc2n1
-21.4

Same question, Cc1ccc2c(c1)C(=O)N1[C@H]3c4cc(Br)ccc4OC[C@@H]3[C@H](c3ccccc3)[C@]1(C)C(=O)N2 this time
-19.3

Please do the same for COC(=O)C[C@@H]1CC[C@@H]2[C@@H](COc3ccc(NC(=O)Nc4cccc(F)c4)cc3C(=O)N2C)O1 as well.
-34.7

COc1ccc(-c2cnc3c(NC=O)cc(-c4ccccc4OC)cn23)cc1OC , same question.
-32.9

Try this compound too: COCC(=O)Nc1ccc2c(c1)[C@@H]1C[C@@H](CC(=O)NCc3ccc(-c4ccccc4)cc3)O[C@@H](CO)[C@@H]1O2
-28
